Recorded values, source patent US20250179065A1.

Molecular target: Full length Human HDAC8 (Homo sapiens (Human), UniProt Q9BY41)
Sequence (Q9BY41 whole entry): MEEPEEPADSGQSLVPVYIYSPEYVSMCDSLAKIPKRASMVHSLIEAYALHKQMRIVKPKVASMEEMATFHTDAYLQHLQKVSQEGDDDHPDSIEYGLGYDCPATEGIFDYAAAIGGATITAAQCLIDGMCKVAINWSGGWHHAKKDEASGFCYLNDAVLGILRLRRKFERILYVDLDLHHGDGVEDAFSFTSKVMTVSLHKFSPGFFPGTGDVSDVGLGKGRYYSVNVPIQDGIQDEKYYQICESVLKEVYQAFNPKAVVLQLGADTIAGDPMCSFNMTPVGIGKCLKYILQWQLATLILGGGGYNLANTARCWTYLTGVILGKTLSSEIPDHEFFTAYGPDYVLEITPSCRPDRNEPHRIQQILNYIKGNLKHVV
pIC50: −log10 of the molar value.
pIC50 overview

Guide cases for pIC50, answers given:
| compound | result |
| --- | --- |
| O=C(NO)c1cnc2c(c1)CCN([C@H]1CCC3(CCC3)C1)C2 (single isomer, unassigned) [Compound 383] | 4.00 to 5.00 |
| CN1CCC[C@]2(C1)C[C@@H](N1CCc3cc(C(=O)NO)cnc3C1)C2 (single isomer, unassigned) [Compound 343] | 5.00 to 6.00 |
| O=C(NO)c1cnc2c(c1)CCN(C1CC3(CCCNC3)C1)C2 (single isomer, unassigned) [Compound 341] | 4.00 to 5.00 |

Return reported pIC50; argument: CN1CCC2(CCC(N3CCc4cc(C(=O)NO)cnc4C3)C2)CC1 (stereo not shown) [Compound 417] 5.00 to 6.00
